Reference for the values: paper PMC9643456

# Test system: human red blood cells
# ASSAY NAME: Hemolytic activity
# Type: cell-based
# ASSAY CONTEXT: red cells of human, 18 h, 25
Square brackets hold non-standard residues; d marks the D form. Peptide text beside a SMILES is read from it.
Label criterion met when Hemolysis percent, 25 μM is at or above 1%; otherwise label criterion not met.

| MOLECULE | LABEL |
| --- | --- |
| CC[C@@H](C)[C@@H](NC(=O)[C@@H](Cc1c[nH]c2ccccc12)NC(=O)[C@@H](CCCNC(=N)N)NC(=O)[C@@H](CCCNC(=N)N)NC(=O)[C@H](N)CCCNC(=N)N)C(=O)N[C@H](Cc1c[nH]c2ccccc12)C(=O)N[C@@H](C(=O)N[C@@H](C(=O)N[C@H](Cc1c[nH]c2ccccc12)C(N)=O)[C@H](C)CC)[C@H](C)CC [WCopW60] (H-[dR][dR][dR][dW][dI][dW][dI][dI][dW]-NH2) | criterion met |
| CC(C)C[C@@H](NC(=O)[C@H](N)Cc1c[nH]c2ccccc12)C(=O)N[C@@H](C(=O)N[C@H](Cc1c[nH]c2ccccc12)C(=O)N[C@@H](C(=O)N[C@H](Cc1ccc(O)cc1)C(=O)N[C@H](CC(C)C)C(=O)N[C@H](CCCNC(=N)N)C(=O)N[C@H](CCCCN)C(=O)N[C@H](CCCCN)C(=O)N[C@H](CCCNC(=N)N)C(N)=O)C(C)C)C(C)C [WCopWVY2] (H-[dW][dL][dV][dW][dV][dY][dL][dR][dK][dK][dR]-NH2) | criterion met |
| CC[C@@H](C)[C@@H](NC(=O)[C@@H](Cc1c[nH]c2ccccc12)NC(=O)[C@H](NC(=O)[C@@H](CC(C)C)NC(=O)[C@@H](Cc1c[nH]c2ccccc12)NC(=O)[C@H](N)CCCCN)C(C)C)C(=O)N[C@H](Cc1c[nH]c2ccccc12)C(=O)N[C@H](CCCNC(=N)N)C(=O)N[C@H](CCCNC(=N)N)C(=O)N[C@H](CCCNC(=N)N)C(N)=O [WCopW35] (H-[dK][dW][dL][dV][dW][dI][dW][dR][dR][dR]-NH2) | criterion met |
| CC[C@@H](C)[C@@H](NC(=O)[C@@H](Cc1c[nH]c2ccccc12)NC(=O)[C@@H](Cc1ccc(O)cc1)NC(=O)[C@@H](CC(C)C)NC(=O)[C@H](N)Cc1c[nH]c2ccccc12)C(=O)N[C@H](CC(C)C)C(=O)N[C@H](CC(C)C)C(=O)N[C@H](CCCNC(=N)N)C(=O)N[C@H](CCCCN)C(=O)N[C@H](CCCCN)C(=O)N[C@H](CCCNC(=N)N)C(N)=O [WCopWYL] (H-[dW][dL][dY][dW][dI][dL][dL][dR][dK][dK][dR]-NH2) | criterion met |
| CC[C@@H](C)[C@@H](NC(=O)[C@@H](Cc1c[nH]c2ccccc12)NC(=O)[C@@H](CC(C)C)NC(=O)[C@H](N)CC(C)C)C(=O)N[C@H](C)C(=O)N[C@H](CC(C)C)C(=O)N[C@H](CCCNC(=N)N)C(=O)N[C@H](CCCCN)C(=O)N[C@H](CCCCN)C(=O)N[C@H](CCCNC(=N)N)C(N)=O [WCopW11] (H-[dL][dL][dW][dI][dA][dL][dR][dK][dK][dR]-NH2) | criterion not met |
